# target_entity: ATP-dependent translocase ABCB1 (Homo sapiens)
# method: ABCB1 efflux pump inhibitors, confirmation, cell-based, single point, ABCG2 counter-screen (AID 1451);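 note: 0% = DMSO and 100% = nicardipine full pump inhibition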
# assay_conditions: CCRF-Adr cells, JC-1 efflux, flow cytometry; at 6.6 µM; hits give high values
Some of the results follow.
readout_name: inhibition (%)
Dear colleague, please return just the value in %, with no unit written.

Prompt line: Form field: reported inhibition of CCOCC(=O)Nc1sc2c(c1C(=O)OCC)CCCC2
Response line: 2.32

Prompt line: Entry Cc1cccc2cc(CN(Cc3cccs3)C(c3nnnn3C3CCCC3)C(C)C)c(=O)[nH]c12 (centres undefined) has what inhibition?
Response line: 61.6

Prompt line: Query: inhibition; subject: COc1ccc(C)cc1NC(=O)C(Sc1ccccc1)c1ccccc1 (centres undefined)
Response line: 3.76

Prompt line: So what does the record say about inhibition for Cc1ccc(OCC(O)CN2CCN(CC(O)COc3ccc(C)cc3Cl)CC2)c(Cl)c1 (centres undefined) ?
Response line: 17.1

Prompt line: // query inhibition value for entry O=C(Cc1c[nH]c2ccccc12)N/N=C/c1cccc(F)c1
Response line: -0.99

Prompt line: Look up inhibition for this compound: COc1cccc(NC(=O)c2ccc(Cn3cc([N+](=O)[O-])cn3)o2)c1
Response line: -0.63

Prompt line: For the compound shown here, C/C(=N\Nc1ncc(Cl)cc1Cl)c1ccc(S(=O)(=O)NCc2ccco2)cc1 , give the reported inhibition.
Response line: 1.61

Prompt line: Look at this compound and give its reported inhibition. CCOC(=O)c1sc(NC(=O)CSc2nnc(-c3ccco3)o2)c(C(=O)OCC)c1C
Response line: 15.2

Prompt line: What does the data say about its inhibition? Entry: Cc1c(CCOC(=O)CC23CC4CC(CC(C)(C4)C2)C3)sc[n+]1Cc1ccc([N+](=O)[O-])cc1
Response line: 0.26
